// reported protein stability index for each item listed
B1: ETS1 (parent)
chain: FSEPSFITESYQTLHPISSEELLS

# Variants of: B1
# experimental-details: protein stability index of a GFP-peptide fusion (GPS, HEK-293T) (PSI 1-6); higher = more stable;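 also: lentivirally expressed fusions sorted by FACS into six bins by GFP to DsRed ratio, PSI derived from sequencing read proportions per bin multiplied by bin number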
# experimental-context: c terminus: a fixed tail appended
I'd appreciate a reply containing only the number, no unit.

Example entries begin here.
{"sequence-change": "S2A", "protein stability index": 2.42}
{"sequence-change": "S5H", "protein stability index": 1.58}
{"sequence-change": "L22F", "protein stability index": 2.01}
{"sequence-change": "Q12P", "protein stability index": 1.91}

Challenge: Given the variant L14V , what is its reported protein stability index?
Response given: 2.09

Challenge: Given the variant S24P , what is its reported protein stability index?
Response given: 2.04

Challenge: Given the variant T8Q , what is its reported protein stability index?
Response given: 2.59

Challenge: Given the variant L22S , what is its reported protein stability index?
Response given: 2

Challenge: Given the variant S10T , what is its reported protein stability index?
Response given: 2.15

Challenge: Given the variant S2C , what is its reported protein stability index?
Response given: 2.38

Challenge: Given the variant S5K , what is its reported protein stability index?
Response given: 2.14

Challenge: Given the variant I17W , what is its reported protein stability index?
Response given: 2.06

Challenge: Given the variant L14N , what is its reported protein stability index?
Response given: 2.08

Challenge: Given the variant T8K , what is its reported protein stability index?
Response given: 2.32

Challenge: Given the variant T13F , what is its reported protein stability index?
Response given: 1.53

Challenge: Given the variant I7K , what is its reported protein stability index?
Response given: 3.73

Challenge: Given the variant P16N , what is its reported protein stability index?
Response given: 1.89

Challenge: Given the variant E20H , what is its reported protein stability index?
Response given: 2.14

Challenge: Given the variant E20N , what is its reported protein stability index?
Response given: 1.7

Challenge: Given the variant S18H , what is its reported protein stability index?
Response given: 2.35
